Data origin, for the record: PubChem BioAssay (NCI)

system: UACC-62 melanoma; assay: NCI tumour cell line growth inhibition, 48 h
Reported TGI is given for each of the following molecules.

Examples from the recorded data:
>>> result("COc1cnc2cc(C(=O)O)c3c([N+](=O)[O-])cccc3c2c1")
"> 100 µM"
>>> result("COc1ccc(C2Oc3c(cc(O)c(OC)c3C)[C@@H]2C)cc1OC (stereo partly drawn)")
"> 100 µM"

Find the recorded TGI belonging to CC(CN1c2ccccc2Sc2ccccc21)N(C)C (stereo not drawn) and report it.
33.9 µM

Find the recorded TGI belonging to CSc1cc(N=Nc2nc3ccccc3s2)c2ccccc2c1O and report it.
11.9 µM

Find the recorded TGI belonging to NC(N)=NS(=O)(=O)c1ccc(NCc2c3ccccc3[n+]([O-])c3ccccc23)cc1 and report it.
> 100 µM
